pKi: −log10 of the molar value.
reported property: pKi

Reported pKi for Human SQOR (Homo sapiens, UniProt Q9Y6N5), given Cl [chloride] ?
~2.13

* * *

# assay text: pKa and nucleophilicity of LMW persulfides by pH-dependence of reaction rates with mBrB (stopped-flow fluorescence)
# condition description: I = 0.15, 25 °C; this work; forms as drawn in Table 1 (ammonium form for CysOMeSSH)
Marks after values point to notes of the source that are not given here.
Give pKa, Persulfide for every item shown.

# query: pKa, Persulfide of entry N[C@@H](CSS)C(=O)O [CysSS^−, cysteine persulfide]
5.2 ± 0.1 ^a

# query: pKa, Persulfide of entry COC(=O)[C@@H](N)CSS [CysOMeSS^−, cysteine methyl ester persulfide]
4.6 ± 0.1 ^a

# query: pKa, Persulfide of entry NCCSS [CystSS^−, cysteamine persulfide]
4.87 ± 0.09 ^a

# query: pKa, Persulfide of entry OCCSS [β-MESS^−, β-mercaptoethanol persulfide]
5.8 ± 0.1 ^a

* * *

Give ΔpKa for every item shown.
# assay text: pKa and nucleophilicity of LMW persulfides by pH-dependence of reaction rates with mBrB (stopped-flow fluorescence)
# condition description: analog thiol pKa minus persulfide pKa
Enter the number alone.

# query: ΔpKa of entry OCCSS [β-MESS^−, β-mercaptoethanol persulfide]
3.8

# query: ΔpKa of entry COC(=O)[C@@H](N)CSS [CysOMeSS^−, cysteine methyl ester persulfide]
2.8

# query: ΔpKa of entry N[C@@H](CCC(=O)N[C@@H](CSS)C(=O)NCC(=O)O)C(=O)O [GSS^−, glutathione persulfide]
3.49

# query: ΔpKa of entry N[C@@H](CSS)C(=O)O [CysSS^−, cysteine persulfide]
3.1
